These measurements were taken from patent US10538555B2.

Recorded pIC50 values for a group of compounds are listed next.
# target-of-assay: Human PD-L1/PD-1 (Homo sapiens)
# Construct: TVMV protease cleavage site (C); made in house; host or cells: HEK293T cells
# Sequence (Q9NZQ7 with tags, fused parts or gaps): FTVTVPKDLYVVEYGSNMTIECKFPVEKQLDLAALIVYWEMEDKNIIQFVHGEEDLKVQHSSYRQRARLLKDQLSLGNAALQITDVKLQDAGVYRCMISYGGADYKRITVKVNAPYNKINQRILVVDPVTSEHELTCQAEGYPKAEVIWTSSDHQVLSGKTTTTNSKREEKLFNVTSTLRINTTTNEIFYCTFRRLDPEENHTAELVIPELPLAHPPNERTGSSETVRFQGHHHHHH
# protocol-text: HTRF Human PD-L1/PD-1 binding assay (PD-1-Ig/PD-L1-His)
# run-parameters: PD-L1-His 10 nM, PD-1-Ig 20 nM; class symbol; read-out: HTRF Human PD-L1/PD-1 Binding Assay IC50 Range
pIC50: −log10 of the molar value. Where a SMILES comes first, the peptide text is derived from it. Bridges are numbered along the chain shown (N, C = ends). [ ]: non-standard residue; d: D form. ξ: configuration not given here. Phe(4-F) = N[C@@H](Cc1ccc(F)cc1)C(=O)O; Hyp = O=C(O)[C@@H]1C[C@@H](O)CN1; NMeF = CN[C@@H](Cc1ccccc1)C(=O)O; Cha = N[C@@H](CC1CCCCC1)C(=O)O; NMehSer = CN[C@@H](CCO)C(=O)O; NMeNle = CCCC[C@H](NC)C(=O)O; dNle = CCCC[C@@H](N)C(=O)O; dPip = O=C(O)[C@H]1CCCCN1; NMeA = CN[C@@H](C)C(=O)O; Dap = NC[C@H](N)C(=O)O; ξC = NC(CS)C(=O)O; Sar = CNCC(=O)O

Completed entries (count: 6):
>>> reported_result("CCCC[C@H]1C(=O)N(C)CC(=O)N[C@@H](CC(=O)O)C(=O)N[C@@H](C(C)C)C(=O)N(C)[C@@H](Cc2ccccc2)C(=O)N[C@@H](Cc2ccc(O)cc2)C(=O)N(C)CC(=O)N[C@@H](Cc2c[nH]c3ccccc23)C(=O)N[C@@H](Cc2ccc(O)cc2)C(=O)N[C@@H](CC(C)C)C(=O)N[C@H](C(=O)NCC(N)=O)CSCC(=O)N[C@@H](CC2CCCCC2)C(=O)N(C)[C@@H](Cc2ccccc2)C(=O)N1C [Example 3238] ({CH2CO}-[Cha][NMeF][NMeNle][Sar]DV[NMeF]Y[Sar]WYLCG-NH2; thioether N-13)")
"6.00 to 7.00"
>>> reported_result("CCCC[C@H]1C(=O)N(C)[C@@H](CCCC)C(=O)N[C@@H](CCC(=O)O)C(=O)NC(C(=O)NCC(N)=O)CSCC(=O)N[C@@H](Cc2ccc(O)cc2)C(=O)N(C)[C@@H](C)C(=O)N[C@@H](CC(N)=O)C(=O)N2CCC[C@H]2C(=O)N[C@@H](Cc2c[nH]cn2)C(=O)N[C@@H](CC(N)=O)C(=O)N2CCC[C@H]2C(=O)N[C@@H](Cc2c[nH]c3ccccc23)C(=O)N[C@@H](CN)C(=O)N[C@@H](Cc2c[nH]c3ccccc23)C(=O)N1C (some centres unmarked) [Example 9178] ({CH2CO}-Y[NMeA]NPHNPW[Dap]W[NMeNle][NMeNle]E[ξC]G-NH2; thioether N-14)")
"6.00 to 7.00"
>>> reported_result("CCCC[C@H]1NC(=O)[C@H](Cc2c[nH]c3ccccc23)NC(=O)[C@H](CO)NC(=O)[C@H](Cc2c[nH]c3ccccc23)NC(=O)[C@@H]2C[C@@H](O)CN2C(=O)[C@H](CC(C)C)NC(=O)[C@H](Cc2cnc[nH]2)NC(=O)[C@@H]2CCCN2C(=O)[C@H](CC(=O)O)NC(=O)[C@H](C)N(C)C(=O)[C@H](Cc2ccc(O)cc2)NC(=O)CSCC(C(=O)NCC(N)=O)NC(=O)[C@H](CCC(=O)O)NC(=O)[C@H](CCCC)N(C)C1=O (some centres unmarked) [Example 10132] ({CH2CO}-Y[NMeA]DPHL[Hyp]WSW[dNle][NMeNle]E[ξC]G-NH2; thioether N-14)")
"6.00 to 7.00"
>>> reported_result("CCCC[C@H]1C(=O)N2CCC[C@@H]2C(=O)N[C@@H](CO)C(=O)N[C@@H](C(C)C)C(=O)N(C)[C@@H](Cc2ccccc2)C(=O)N[C@@H](Cc2ccc(O)cc2)C(=O)N2CCC[C@@H]2C(=O)N[C@@H](Cc2c[nH]c3ccccc23)C(=O)N[C@@H](Cc2ccc(O)cc2)C(=O)N[C@@H](CC(C)C)C(=O)N[C@H](C(=O)NCC(N)=O)CSCC(=O)N[C@@H](Cc2ccccc2)C(=O)N(C)[C@@H](Cc2ccccc2)C(=O)N1C [Example 10067] ({CH2CO}-F[NMeF][NMeNle][dP]SV[NMeF]Y[dP]WYLCG-NH2; thioether N-13)")
"8.00 to 9.00"
>>> reported_result("CCCC[C@H]1C(=O)N2CCC[C@@H]2C(=O)N[C@@H](CC(=O)O)C(=O)N[C@@H](C(C)C)C(=O)N(C)[C@@H](CCOC)C(=O)N[C@@H](CCC(N)=O)C(=O)N2CCC[C@@H]2C(=O)N[C@@H](Cc2c[nH]c3ccccc23)C(=O)N[C@@H](Cc2ccc(O)cc2)C(=O)N[C@@H](CC(C)C)C(=O)N[C@H](C(=O)NCC(N)=O)CSCC(=O)N[C@@H](Cc2ccc(F)cc2)C(=O)N(C)[C@@H](Cc2ccccc2)C(=O)N1C [Example 9223] ({CH2CO}-[Phe(4-F)][NMeF][NMeNle][dP]DV[NMehSer](Me)Q[dP]WYLCG-NH2; thioether N-13)")
"6.00 to 7.00"
>>> reported_result("CCCC[C@H]1NC(=O)[C@H](Cc2c[nH]c3ccccc23)NC(=O)[C@H](CO)NC(=O)[C@H](Cc2c[nH]c3ccccc23)NC(=O)[C@@H]2C[C@@H](O)CN2C(=O)[C@H](CCC(N)=O)NC(=O)[C@H](Cc2cnc[nH]2)NC(=O)[C@@H]2CCCN2C(=O)[C@H](CC(N)=O)NC(=O)[C@H](C)N(C)C(=O)[C@H](Cc2ccc(O)cc2)NC(=O)CSCC(C(=O)NCC(N)=O)NC(=O)[C@H](CCCNC(=N)N)NC(=O)[C@H](CCCC)N(C)C1=O (some centres unmarked) [Example 10126] ({CH2CO}-Y[NMeA]NPHQ[Hyp]WSW[dNle][NMeNle]R[ξC]G-NH2; thioether N-14)")
"5.00 to 6.00"

Req: pIC50 for CCCC[C@H]1C(=O)N(C)CC(=O)N[C@@H](CC(=O)O)C(=O)N[C@@H](C)C(=O)N(C)[C@@H](Cc2ccccc2)C(=O)N[C@@H](Cc2ccc(O)cc2)C(=O)N2CCCC[C@@H]2C(=O)N[C@@H](Cc2c[nH]c3ccccc23)C(=O)N[C@@H](Cc2ccc(O)cc2)C(=O)N[C@@H](CC(C)C)C(=O)N[C@H](C(=O)NCC(N)=O)CSCC(=O)N[C@@H](Cc2ccccc2)C(=O)N(C)[C@@H](Cc2ccccc2)C(=O)N1C [Example 10081] ({CH2CO}-F[NMeF][NMeNle][Sar]DA[NMeF]Y[dPip]WYLCG-NH2; thioether N-13) ?
Resp: 7.00 to 8.00

Req: Consider next the compound CCCC[C@H]1C(=O)N(C)[C@@H](C)C(=O)N[C@@H](CCCNC(=N)N)C(=O)NC(C(=O)NCC(N)=O)CSCC(=O)N[C@@H](Cc2ccc(O)cc2)C(=O)N(C)[C@@H](C)C(=O)N[C@@H](CC(N)=O)C(=O)N2CCC[C@H]2C(=O)N[C@@H](CO)C(=O)N[C@H](CC(C)C)C(=O)N2C[C@H](O)C[C@H]2C(=O)N[C@@H](Cc2c[nH]c3ccccc23)C(=O)N[C@@H](CO)C(=O)N[C@@H](Cc2c[nH]c3ccccc23)C(=O)N1C (stereo partly drawn) [Example 9115] ({CH2CO}-Y[NMeA]NPS[dL][Hyp]WSW[NMeNle][NMeA]R[ξC]G-NH2; thioether N-14) in the same way.
Resp: 7.00 to 8.00

----------
# target-of-assay: Human PD-L1/PD-1 (Homo sapiens)
# Construct: TVMV protease cleavage site (C); made in house; host or cells: HEK293T cells
# protocol-text: HTRF Human PD-L1/PD-1 binding assay (PD-1-Ig/PD-L1-His)
# run-parameters: PD-L1-His 10 nM, PD-1-Ig 20 nM; class symbol; read-out: HTRF Human PD-L1/PD-1 Binding Assay IC50 Range
pIC50: −log10 of the molar value. Where a SMILES comes first, the peptide text is derived from it. Bridges are numbered along the chain shown (N, C = ends). [ ]: non-standard residue; d: D form. ξ: configuration not given here. Bta = N[C@@H](Cc1csc2ccccc12)C(=O)O; Hyp = O=C(O)[C@@H]1C[C@@H](O)CN1; NMeF = CN[C@@H](Cc1ccccc1)C(=O)O; NMeNle = CCCC[C@H](NC)C(=O)O; NMeA = CN[C@@H](C)C(=O)O; ξC = NC(CS)C(=O)O; Sar = CNCC(=O)O
Recorded pIC50 values for a group of compounds are listed next.

>>> reported_result("CCCC[C@H]1C(=O)N(C)CC(=O)N[C@@H](CC(=O)O)C(=O)N[C@@H]([C@@H](C)O)C(=O)N(C)[C@@H](Cc2ccccc2)C(=O)N[C@@H](Cc2ccc(O)cc2)C(=O)N(C)CC(=O)N[C@@H](Cc2c[nH]c3ccccc23)C(=O)N[C@@H](Cc2ccc(O)cc2)C(=O)N[C@@H](CC(C)C)C(=O)N[C@H](C(=O)NCC(N)=O)CSCC(=O)N[C@@H](Cc2ccccc2)C(=O)N(C)[C@@H](Cc2ccccc2)C(=O)N1C [Example 3225] ({CH2CO}-F[NMeF][NMeNle][Sar]DT[NMeF]Y[Sar]WYLCG-NH2; thioether N-13)")
"8.00 to 9.00"

Req: pIC50 for CCCC[C@H]1C(=O)N(C)[C@@H](CCCC)C(=O)N[C@@H](CCCNC(=N)N)C(=O)NC(C(=O)NCC(N)=O)CSCC(=O)N[C@@H](Cc2ccc(O)cc2)C(=O)N(C)[C@@H](C)C(=O)N[C@@H](CC(N)=O)C(=O)N2CCC[C@H]2C(=O)N[C@@H](CO)C(=O)N[C@@H](CO)C(=O)N2C[C@H](O)C[C@H]2C(=O)N[C@@H](Cc2c[nH]c3ccccc23)C(=O)N[C@@H](CO)C(=O)N[C@@H](Cc2csc3ccccc23)C(=O)N1C (some centres unmarked) [Example 10016] ({CH2CO}-Y[NMeA]NPSS[Hyp]WS[Bta][NMeNle][NMeNle]R[ξC]G-NH2; thioether N-14) ?
Resp: 7.00 to 8.00
